Data export: pKd values recorded with KIT kinase (Homo sapiens, UniProt P10721).
Sequence (P10721 26-976): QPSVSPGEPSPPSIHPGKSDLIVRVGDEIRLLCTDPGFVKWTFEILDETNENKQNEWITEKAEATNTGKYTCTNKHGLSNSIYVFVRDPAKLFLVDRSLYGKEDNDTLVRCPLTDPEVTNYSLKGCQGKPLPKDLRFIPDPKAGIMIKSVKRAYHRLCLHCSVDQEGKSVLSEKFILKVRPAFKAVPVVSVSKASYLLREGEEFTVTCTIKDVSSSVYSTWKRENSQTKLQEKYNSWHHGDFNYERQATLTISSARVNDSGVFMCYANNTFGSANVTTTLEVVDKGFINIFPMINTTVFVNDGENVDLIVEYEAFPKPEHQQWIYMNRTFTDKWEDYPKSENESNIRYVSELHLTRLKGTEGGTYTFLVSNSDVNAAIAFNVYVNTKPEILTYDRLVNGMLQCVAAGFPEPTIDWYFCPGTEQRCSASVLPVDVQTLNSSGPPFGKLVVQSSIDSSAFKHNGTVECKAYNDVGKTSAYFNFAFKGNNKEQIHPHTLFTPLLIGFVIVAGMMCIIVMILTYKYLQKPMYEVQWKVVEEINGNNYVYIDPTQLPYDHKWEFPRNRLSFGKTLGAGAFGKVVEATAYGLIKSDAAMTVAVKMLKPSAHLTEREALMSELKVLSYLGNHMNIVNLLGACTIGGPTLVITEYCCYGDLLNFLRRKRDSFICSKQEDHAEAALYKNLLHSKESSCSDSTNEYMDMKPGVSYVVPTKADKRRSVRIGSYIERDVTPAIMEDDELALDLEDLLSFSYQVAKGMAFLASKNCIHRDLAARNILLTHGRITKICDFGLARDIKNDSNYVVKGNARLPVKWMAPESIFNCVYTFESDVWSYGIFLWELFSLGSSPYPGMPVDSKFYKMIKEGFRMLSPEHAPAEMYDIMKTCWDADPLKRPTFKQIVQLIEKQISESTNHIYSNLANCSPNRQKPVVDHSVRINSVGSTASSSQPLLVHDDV
pKd: −log10 of the molar value.
outcome measure: pKd

[[record]]
molecule = "CC(C)(C)c1cc(NC(=O)Cc2ccc(-c3cnc(NCCN4CCOCC4)nc3)cc2)no1 [Example 75]"
outcome_measure = "pKd"
measurement = "8.00 to 9.00"

[[record]]
molecule = "CC(C)(C)c1cc(NC(=O)Cc2ncc(-c3ccc(N)nc3)cc2F)no1.CS(=O)(=O)O [Example 148, methanesulfonate]"
outcome_measure = "pKd"
measurement = "≥ 9.00"

[[record]]
molecule = "CC(C)(C)c1cc(NC(=O)Cc2ccc(-c3cnc(N)c(C(F)(F)F)c3)cc2)no1.CS(=O)(=O)O [Example 116, methanesulfonate]"
outcome_measure = "pKd"
measurement = "8.00 to 9.00"

[[record]]
molecule = "CC(C)Nc1ncc(-c2ccc(NC(=O)Cc3cccc(C(F)(F)F)c3)nc2)cn1 [Example 67]"
outcome_measure = "pKd"
measurement = "≥ 9.00"

[[record]]
molecule = "CC(C)(c1cc(NC(=O)Cc2ccc(-c3ccc(NCCN4CCOCC4)nc3)cc2)no1)C(F)(F)F.CS(=O)(=O)O [Example 109, methanesulfonate]"
outcome_measure = "pKd"
measurement = "8.00 to 9.00"

[[record]]
molecule = "CC(C)(C)c1cc(NC(=O)Cc2ccc(-c3ccc(N)nc3)c(F)c2)no1.CS(=O)(=O)O [Example 125, methanesulfonate]"
outcome_measure = "pKd"
measurement = "≥ 9.00"

[[record]]
molecule = "CC(C)(C)c1cc(NC(=O)Cc2ccc(-c3cnc4[nH]c(=O)oc4c3)cc2)no1 [Example 141]"
outcome_measure = "pKd"
measurement = "8.00 to 9.00"


---

Recorded below: Kd, system FLT3 kinase (Homo sapiens).
outcome measure: Kd

[[record]]
compound = "CC(C)(C)c1cc(NC(=O)Nc2ccc(-c3cnc(NCCN4CCOCC4)c(C#N)c3)cc2)no1 [Example 6]"
outcome_measure = "Kd"
measurement = "1 to 10 nM"

[[record]]
compound = "Cc1nc(N)ccc1-c1ccc(CC(=O)Nc2cc(C3(C)CC3)on2)cc1 [Example 162]"
outcome_measure = "Kd"
measurement = "≤ 1 nM"

[[record]]
compound = "CC(C)(C)c1cc(NC(=O)Nc2ccc(-c3cnc4c(c3)OCC(CCO)N4)cc2)no1 (centres unmarked) [Example 5]"
outcome_measure = "Kd"
measurement = "≤ 1 nM"

[[record]]
compound = "CC1(c2cc(NC(=O)Cc3ccc(-c4cc(F)c(N)nc4F)cc3)no2)CC1 [Example 177]"
outcome_measure = "Kd"
measurement = "≤ 1 nM"

[[record]]
compound = "Cn1nc(C(C)(C)CF)cc1NC(=O)Nc1ccc(-c2ccc(N)nc2)cc1 [Example 90, acetate]"
outcome_measure = "Kd"
measurement = "1 to 10 nM"

[[record]]
compound = "CC(C)(C)c1cc(NC(=O)Nc2ccc(-c3ccc(NCCN4CCCCC4)nc3)cc2F)no1 [Example 27]"
outcome_measure = "Kd"
measurement = "≤ 1 nM"

[[record]]
compound = "Nc1ccc(-c2ccc(NC(=O)Nc3cc(C4(C(F)(F)F)CC4)on3)cc2)cn1 [Example 33, methanesulfonate]"
outcome_measure = "Kd"
measurement = "≤ 1 nM"

[[record]]
compound = "CNc1ccc(-c2ccc(CC(=O)Nc3cc(C(C)(C)C)on3)cc2)cn1.CS(=O)(=O)O [Example 110, methanesulfonate]"
outcome_measure = "Kd"
measurement = "≤ 1 nM"


---

# maps each entry to its Kd
molecular target: KIT kinase (Homo sapiens); construct: made in house; host or cells: T7 phage display or HEK-293 cells; assay: Competition binding assay, KIT Kd
outcome measure: Kd

[[record]]
compound = "CC(C)(C)c1cc(NC(=O)Cc2ccc(-c3ccc(NCCN4CCOCC4)nc3)cc2)on1.CS(=O)(=O)O [Example 96, methanesulfonate]"
tested_system = "KIT kinase (Homo sapiens)"
outcome_measure = "Kd"
measurement = "≤ 1 nM"

[[record]]
compound = "CC(C)(C)c1cc(NC(=O)Cc2ccc(-c3cnc(N)c(Cl)c3)cc2)no1.CS(=O)(=O)O [Example 115, methanesulfonate]"
tested_system = "KIT kinase (Homo sapiens)"
outcome_measure = "Kd"
measurement = "1 to 10 nM"

[[record]]
compound = "Nc1ccc(-c2ccc(CC(=O)Nc3cc(C4(C(F)(F)F)CCC4)on3)cc2)cn1"
tested_system = "KIT kinase (Homo sapiens)"
outcome_measure = "Kd"
measurement = "1 to 10 nM"

[[record]]
compound = "Nc1ccc(-c2ccc(NC(=O)Nc3cc(C4(C(F)(F)F)CC4)on3)nc2)cn1"
tested_system = "KIT kinase (Homo sapiens)"
outcome_measure = "Kd"
measurement = "≤ 1 nM"

[[record]]
compound = "CC(C)(c1cc(NC(=O)Nc2ccc(-c3ccc(N)nc3)cn2)no1)C(F)(F)F"
tested_system = "KIT kinase (Homo sapiens)"
outcome_measure = "Kd"
measurement = "≤ 1 nM"

[[record]]
compound = "COc1cc(-c2ccc(N)nc2)ccc1NC(=O)Nc1cc(C(C)(C)C)on1 [Example 69, methanesulfonate]"
tested_system = "KIT kinase (Homo sapiens)"
outcome_measure = "Kd"
measurement = "≤ 1 nM"

[[record]]
compound = "CS(=O)(=O)O.Nc1ccc(-c2ccc(CC(=O)Nn3cc(C(F)(F)F)cn3)cc2)cn1 [Example 126, methanesulfonate]"
tested_system = "KIT kinase (Homo sapiens)"
outcome_measure = "Kd"
measurement = "1 to 10 nM"


---

biological target: FLT3 kinase (Homo sapiens, UniProt P36888)
Sequence (P36888 27-993): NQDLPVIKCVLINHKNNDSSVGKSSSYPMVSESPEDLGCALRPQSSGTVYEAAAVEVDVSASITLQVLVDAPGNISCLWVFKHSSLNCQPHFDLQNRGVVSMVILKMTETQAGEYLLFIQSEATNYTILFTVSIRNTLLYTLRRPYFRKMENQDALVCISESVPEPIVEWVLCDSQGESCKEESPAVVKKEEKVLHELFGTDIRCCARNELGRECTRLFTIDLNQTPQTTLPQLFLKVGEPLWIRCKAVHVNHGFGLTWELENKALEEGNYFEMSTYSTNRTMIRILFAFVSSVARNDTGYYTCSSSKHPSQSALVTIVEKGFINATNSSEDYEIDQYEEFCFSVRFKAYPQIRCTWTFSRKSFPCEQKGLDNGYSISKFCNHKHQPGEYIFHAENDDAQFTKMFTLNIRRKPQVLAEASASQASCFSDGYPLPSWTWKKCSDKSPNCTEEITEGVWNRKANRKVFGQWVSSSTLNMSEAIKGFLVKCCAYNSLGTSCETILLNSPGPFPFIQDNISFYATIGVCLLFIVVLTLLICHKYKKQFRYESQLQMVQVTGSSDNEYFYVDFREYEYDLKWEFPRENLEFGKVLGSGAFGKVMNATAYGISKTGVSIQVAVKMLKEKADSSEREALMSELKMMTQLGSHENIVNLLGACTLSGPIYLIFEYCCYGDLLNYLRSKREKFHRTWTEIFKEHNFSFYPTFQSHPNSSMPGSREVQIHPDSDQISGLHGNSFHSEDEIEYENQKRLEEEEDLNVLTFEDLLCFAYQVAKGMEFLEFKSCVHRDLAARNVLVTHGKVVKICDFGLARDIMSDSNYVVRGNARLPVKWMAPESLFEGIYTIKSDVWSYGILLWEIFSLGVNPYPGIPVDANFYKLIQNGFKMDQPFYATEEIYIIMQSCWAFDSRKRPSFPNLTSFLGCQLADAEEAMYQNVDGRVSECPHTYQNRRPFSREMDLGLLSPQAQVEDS
outcome measure: Kd

[[record]]
molecule = "COCCNc1ccc(-c2ccc(CC(=O)Nc3cc(C(C)(C)C)on3)cc2)cn1 [Example 89, methanesulfonate]"
measurement = "≤ 1 nM"

[[record]]
molecule = "CC(C)(CO)c1cc(NC(=O)Cc2ccc(-c3ccc(N)nc3)cc2)no1 [Example 88, methanesulfonate]"
measurement = "≤ 1 nM"

[[record]]
molecule = "CS(=O)(=O)O.Cc1nc(-c2ccc(CC(=O)Nc3cc(C(C)(C)C)on3)cc2)cnc1N [Example 113, methanesulfonate]"
measurement = "≤ 1 nM"

[[record]]
molecule = "CC(C)(c1cc(NC(=O)Nc2ccc(-c3ccc(NCCN4CCOCC4)nc3)cc2)no1)C(F)(F)F [Example 39, methanesulfonate]"
measurement = "≤ 1 nM"

[[record]]
molecule = "CC1(c2cc(NC(=O)Nc3ccc(-c4ccc(N)nc4)cc3)no2)CC1(F)F.CS(=O)(=O)O (stereo not drawn) [Example 112, methanesulfonate]"
measurement = "≤ 1 nM"

[[record]]
molecule = "CC(C)(C)c1cc(NC(=O)Cc2ccc(-c3ccc(N)nc3C#N)cc2)no1"
measurement = "≤ 1 nM"

[[record]]
molecule = "COc1cc(-c2ccc(CC(=O)Nc3cc(C4(C)CC4)on3)cc2)cnc1N"
measurement = "≤ 1 nM"

[[record]]
molecule = "CC(CF)(CF)c1cc(NC(=O)Nc2ccc(-c3ccc(NCCN4CCOCC4)nc3)cc2)no1 [Example 37, methanesulfonate]"
measurement = "≤ 1 nM"

[[record]]
molecule = "CC(C)(C)c1cc(NC(=O)Nc2ccc(-c3cnc4c(c3)OCCN4)cc2)no1"
measurement = "1 to 10 nM"

[[record]]
molecule = "CC(C)(c1cc(NC(=O)Nc2ccc(-c3ccc(N)nc3)cn2)no1)C(F)(F)F"
measurement = "≤ 1 nM"

[[record]]
molecule = "CC(C)(C)c1cc(NC(=O)Cc2ccc(-c3ccc(NCCS(C)(=O)=O)nc3)cc2)no1.CS(=O)(=O)O [Example 92, methanesulfonate]"
measurement = "≤ 1 nM"

[[record]]
molecule = "CC(C)(F)c1cc(NC(=O)Cc2ccc(-c3ccc(N)nc3)cc2)on1.CS(=O)(=O)O [Example 101, methanesulfonate]"
measurement = "≤ 1 nM"

[[record]]
molecule = "CS(=O)(=O)O.Cc1cc(-c2ccc(CC(=O)Nc3cc(C4(C)COC4)on3)cc2)cnc1N [Example 145, methanesulfonate]"
measurement = "≤ 1 nM"

[[record]]
molecule = "CC(C)Nc1ncc(-c2ccc(NC(=O)Cc3cccc(C(F)(F)F)c3)nc2)cn1"
measurement = "1 to 10 nM"

[[record]]
molecule = "CC(C)(C)c1cc(NC(=O)Cc2ccc(-c3ccc(N)nc3)cc2)on1 [Example 84, methanesulfonate]"
measurement = "≤ 1 nM"


---

target: kinase panel containing either 359 or 386 distinct kinases; test: Selectivity score S10 from competition binding against a panel of kinases; details: compounds at 10 μM; panel of 386 distinct kinases
outcome measure: Kinase specificty: S(10)-386 panel

[[record]]
compound = "COc1cc(N)ncc1-c1ccc(CC(=O)Nc2cc(C(C)(C)C)on2)cc1 [Example 157]"
outcome_measure = "Kinase specificty: S(10)-386 panel"
measurement = "A (A≦0.1)"

[[record]]
compound = "CC(C)(C)c1cc(NC(=O)Cc2ccc(-c3ccc(N)nc3)c(F)c2)no1.CS(=O)(=O)O [Example 125]"
outcome_measure = "Kinase specificty: S(10)-386 panel"
measurement = "A (A≦0.1)"

[[record]]
compound = "CC1(c2cc(NC(=O)Nc3ccc(-c4ccc(N)nc4)cc3)no2)COC1.CS(=O)(=O)O [Example 98]"
outcome_measure = "Kinase specificty: S(10)-386 panel"
measurement = "A (A≦0.1)"

[[record]]
compound = "CC(C)(C)c1cc(NC(=O)Cc2ccc(-c3cnc(N)c(C(F)F)c3)cc2)no1 [Example 163]"
outcome_measure = "Kinase specificty: S(10)-386 panel"
measurement = "B (0.1<B≦0.2 nM)"

[[record]]
compound = "CC(C)(C)c1cc(NC(=O)Cc2ccc(-c3ccc(N)nc3C(F)(F)F)cc2)no1.CS(=O)(=O)O [Example 129]"
outcome_measure = "Kinase specificty: S(10)-386 panel"
measurement = "A (A≦0.1)"

[[record]]
compound = "Cc1nc(N)cnc1-c1ccc(CC(=O)Nc2cc(C(C)(C)C)on2)cc1 [Example 165]"
outcome_measure = "Kinase specificty: S(10)-386 panel"
measurement = "A (A≦0.1)"

[[record]]
compound = "COc1cc(-c2ccc(CC(=O)Nc3cc(C4(C)CC4)on3)cc2)cnc1N [Example 164]"
outcome_measure = "Kinase specificty: S(10)-386 panel"
measurement = "B (0.1<B≦0.2 nM)"

[[record]]
compound = "COc1nc(N)ccc1-c1ccc(CC(=O)Nc2cc(C(C)(C)C)on2)cc1.CS(=O)(=O)O [Example 131]"
outcome_measure = "Kinase specificty: S(10)-386 panel"
measurement = "A (A≦0.1)"


meta.source: patent US20130035326A1
